Hey, just so you know, these numbers are from patent US20120264685A1.

Field: cAMP production (pmol/ml/µg prt) with saturated glucagon peptide, at 1 µM. Provide a value for each of the binders that follow.
# study.system: human glucagon receptor (human, UniProt P47871 26-477)
# Sequence (P47871 26-477): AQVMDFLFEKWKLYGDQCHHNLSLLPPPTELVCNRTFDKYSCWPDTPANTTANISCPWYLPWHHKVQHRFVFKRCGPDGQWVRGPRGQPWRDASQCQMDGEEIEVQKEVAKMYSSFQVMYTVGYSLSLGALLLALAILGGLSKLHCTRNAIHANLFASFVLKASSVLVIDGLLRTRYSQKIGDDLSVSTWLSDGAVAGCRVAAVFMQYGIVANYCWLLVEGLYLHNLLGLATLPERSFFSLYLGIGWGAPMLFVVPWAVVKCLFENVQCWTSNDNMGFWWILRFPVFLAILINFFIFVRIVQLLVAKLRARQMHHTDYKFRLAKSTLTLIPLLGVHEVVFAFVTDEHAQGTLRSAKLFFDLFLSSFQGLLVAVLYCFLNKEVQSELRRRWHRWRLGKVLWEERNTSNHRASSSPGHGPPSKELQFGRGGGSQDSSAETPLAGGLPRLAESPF
# run.description: cell-based or functional assay
Where no end group is shown, it is not given here. [ ]: non-standard residue; d: D form. Bip(2'-Et-4'-OMe) = CCc1cc(OC)ccc1-c1ccc(C[C@H](N)C(=O)O)cc1; αMePhe(2,6-F2) = C[C@](N)(Cc1c(F)cccc1F)C(=O)O; αMePhe(2-F) = C[C@](N)(Cc1ccccc1F)C(=O)O; αMeBip(OMe) = alpha-methylated Bip(OMe); hhPhe = N[C@@H](CCCc1ccccc1)C(=O)O; αMeD = C[C@](N)(CC(=O)O)C(=O)O; αMeP = C[C@@]1(C(=O)O)CCCN1; αMeAPPA = not defined here; αMeS = C[C@](N)(CO)C(=O)O; Aib = CC(C)(N)C(=O)O
Numbers only, in pmol/ml/µg prt.

// worked examples, cAMP production (pmol/ml/µg prt) with saturated glucagon peptide, at 1 µM included
{"columns": ["binder", "unit.spec", "measured.number"],
 "data": [
  ["VHAEGT[αMePhe(2,6-F2)]TSD[αMeBip(OMe)][hhPhe]-NH2 [Seq. ID. No. 30]", "pmol/ml/µg prt", 0],
  ["VHSEGT[αMePhe(2-F)]T[αMeS]D[αMeBip(OMe)][αMeAPPA] (not fully specified (C-terminus); printed as VHSEGT-(αMe-2FPhe)-T-(αMe-Ser)-D-(αMe-Bip(OMe))-(αMe-APPA); reading uncertain) [Seq. ID. No. 169]", "pmol/ml/µg prt", 0]
]}

Provide cAMP production (pmol/ml/µg prt) with saturated glucagon peptide, at 1 µM for all items below, preserving their order.
1. VH[Aib]EGTFTS[αMeD][αMeBip(OMe)][hhPhe]-NH2 [Seq. ID. No. 63]
2. VVH[Aib]EGT[αMePhe(2,6-F2)]TSD[αMeBip(OMe)][hhPhe]-NH2 [Seq. ID. No. 227]
3. VH[Aib]EGTFT[αMeS]D[αMeBip(OMe)][hhPhe]-NH2 [Seq. ID. No. 39]

Result:
[14, 14, 8]

Provide cAMP production (pmol/ml/µg prt) with saturated glucagon peptide, at 1 µM for all items below, preserving their order.
1. VVHSEGT[αMePhe(2-F)]TSD[αMeBip(OMe)][hhPhe]-NH2 [Seq. ID. No. 217]
2. VHSQGT[αMePhe(2-F)]TSD[αMeBip(OMe)][hhPhe] (not fully specified (C-terminus); printed as VHSQGT-(αMe-2FPhe)-TSD-(αMe-Bip(OMe))-(APPA)) [Seq. ID. No. 17]
3. VH[Aib]QGT[αMePhe(2-F)]T[αMeS]D[αMeBip(OMe)][αMeAPPA] (not fully specified (C-terminus); reading uncertain) [Seq. ID. No. 167]

Result:
1. 0
2. 0
3. 3

Provide cAMP production (pmol/ml/µg prt) with saturated glucagon peptide, at 1 µM for all items below, preserving their order.
1. VVH[αMeP]QGTFTSD[αMeBip(OMe)][hhPhe] (not fully specified (C-terminus); printed as VVH-(αMe-Pro)-QGTFTSD-(αMe-Bip(OMe))-(APPA)) [Seq. ID. No. 208]
2. VH[αMeP]EGT[αMePhe(2,6-F2)]TS[αMeD][αMeBip(OMe)][αMeAPPA] (not fully specified (C-terminus); reading uncertain) [Seq. ID. No. 204]

Result:
[0, 3]

Provide cAMP production (pmol/ml/µg prt) with saturated glucagon peptide, at 1 µM for all items below, preserving their order.
1. VH[Aib]EGTFT[αMeS]D[αMeBip(OMe)][αMeAPPA] (not fully specified (C-terminus); printed as VH-Aib-EGTFT-(αMe-Ser)-D-(αMe-Bip(OMe))-(αMe-APPA); reading uncertain) [Seq. ID. No. 163]
2. VHSQGT[αMePhe(2-F)]TS[αMeD][αMeBip(OMe)][αMeAPPA] (not fully specified (C-terminus); printed as VHSQGT-(αMe-2FPhe)-TS-(αMe-Asp)-(αMe-Bip(OMe))-(αMe-APPA); reading uncertain) [Seq. ID. No. 189]
3. VH[Aib]EGTFT[αMeS][αMeD][Bip(2'-Et-4'-OMe)][αMeAPPA] (not fully specified (C-terminus); printed as VH-Aib-EGTFT-(αMe-Ser)-(αMe-Asp)-Bip(OMe)-(αMe-APPA); reading uncertain) [Seq. ID. No. 113]
4. VH[Aib]QGT[αMePhe(2-F)]TSD[αMeBip(OMe)][hhPhe] (not fully specified (C-terminus); printed as VH-Aib-QGT-(αMe-2FPhe)-TSD-(αMe-Bip(OMe))-(APPA)) [Seq. ID. No. 19]
5. VH[αMeP]QGT[αMePhe(2-F)]T[αMeS]D[αMeBip(OMe)][hhPhe]-NH2 [Seq. ID. No. 44]
6. VHAEGT[αMePhe(2-F)]TS[αMeD][αMeBip(OMe)][hhPhe]-NH2 [Seq. ID. No. 70]
7. VH[αMeP]QGT[αMePhe(2,6-F2)]TS[αMeD][αMeBip(OMe)][αMeAPPA] (not fully specified (C-terminus); reading uncertain) [Seq. ID. No. 200]

Result:
1. 4
2. 0
3. 0
4. 4
5. 0
6. 0
7. 4
